Tested on: LPS-induced microglia activation
Experiment: Image-based assay of LPS-induced microglia activation (HTS and dose response)
Format: cell-based, rat
Settings: Rattus norvegicus, Microglia, LPS-induced microglia activation, dose response; read-out: LPS IC50 (uM) (Suppl. Table 7)
recorded_metric: IC50

compound | IC50
CO[C@H]1C[C@@H]2CC[C@@H](C)[C@@](O)(O2)C(=O)C(=O)N2CCCC[C@H]2C(=O)O[C@H]([C@H](C)C[C@@H]2CC[C@@H](O)[C@H](OC)C2)CC(=O)[C@H](C)/C=C(\C)[C@@H](O)[C@@H](OC)C(=O)[C@H](C)C[C@H](C)/C=C/C=C/C=C/1C [Rapamycin, reference compound] | < 0.001 µM

Prompt line: IC50 of C#C[C@]1(O)CC[C@H]2[C@@H]3CCc4cc(O)ccc4[C@H]3CC[C@@]21C [Ethinyl estradiol, reference compound] on LPS-induced microglia activation?
Response line: > 20 µM
